Data provenance is ChEMBL document CHEMBL1157539.

Test system: Plasmodium falciparum
procedureDetails: GSK_TCMDC: Inhibition of Plasmodium falciparum 3D7 in whole red blood cells, using parasite LDH activity as an index of growth. Test compounds present at 2uM
Format: functional
measurementType: Inhibition (%)
State the answer as a number, implicitly in %.

Input line: Entry Cc1cc(O)c2c3c1C(=O)C=C1C3c3c(c(O)cc(O)c3C(=O)C1(C)C)C2=O (stereo not given) needs its Inhibition filled in; supply it.
Output line: 98

Input line: Specify Inhibition for CN(C)CCNCc1ccc(-c2ccc3c(Nc4ccc(F)cc4Cl)ccnc3c2)o1 and stop.
Output line: 100

Input line: Indicate the recorded Inhibition value for this molecule: CC(=O)N1N=C(c2ccc(Cl)cc2)Sc2c1nc(C1CCCCC1)n2C(C)=O
Output line: 100

Input line: Give a short answer stating reported Inhibition for COc1ccc(-c2cncc3ccc(C(=O)NCc4ccncc4)nc23)cc1 .
Output line: 100

Input line: Give me measured Inhibition, please, for this molecule: O=C(NCc1ccccc1)c1ccc(C(=O)NCC2CNCCO2)cc1.O=C(O)C(F)(F)F (stereo not given)
Output line: 92

====

Task for the reader: assign each of the following compounds its reported Inhibition.
Test system: HepG2
procedureDetails: GSK_TCMDC: Percent inhibition of human HepG2 cell line. Test compounds present at 10uM.
Type: functional
Report the figure in % without appending any unit label.

Input line: Tell me its Inhibition on HepG2: COc1ccc(CN2CCCC(OC(c3ccc(F)cc3)c3ccc(F)cc3)C2)c(O)c1 (stereo not given)
Output line: 16

Input line: Find Inhibition for COCCCC1C(=O)OC2CCCC21 (stereo not given) on HepG2 and write it down.
Output line: 0

Input line: # lookup: HepG2 Inhibition, key = NC(=O)NC(=O)C=Cc1ccco1
Output line: 32

Input line: Please respond with reported Inhibition (system HepG2) for CCn1c(-c2nonc2N)nc2cnc(Oc3cccc(NC(=O)c4ccc(OCCN5CCCCC5)cc4)c3)cc21 .
Output line: 16

Input line: State Inhibition on HepG2. Entry: O=C(NCCCCCN1CCC(c2c[nH]c3ccccc23)CC1)Nc1ccc(Cl)c(Cl)c1
Output line: 42

Input line: Determine reported Inhibition for CN1CCCC1CCNCc1cccc(-c2cnc(N(C)C3CCCCC3)nc2)c1 (stereo not given) ; test system: HepG2.
Output line: 98

Input line: Tell me Inhibition of COc1cc2cc(C(=O)Nc3ccccc3)c(N)nc2cc1OC when tested on HepG2.
Output line: 0

Input line: Retrieve Inhibition on HepG2; query CC(=O)Nc1ccc(C(=O)Nc2cccc(-c3cccc(-c4nc5cccc(C)c5[nH]4)c3)c2)cn1
Output line: 16

Input line: Given CCCc1ccc(C(=O)N2C(c3nccs3)C(C(N)=O)CC2(CC(C)C)C(=O)O)cc1 (stereo not given) , report its Inhibition on HepG2.
Output line: 16

Input line: Enter recorded Inhibition with HepG2 for Oc1cc(NC[C@@H]2CCC[C@@H]2NCc2ccc(Cl)c(Cl)c2)nc2ccccc12 here.
Output line: 9

====

Test system: HepG2
procedureDetails: GSK_TCMDC: Percent inhibition of human HepG2 cell line. Test compounds present at 10uM.
Format: functional
Would you mind telling me the reported Inhibition of each entry?
Include the unit after the number when you answer.

Input line: Please report Inhibition for the following molecule: CCN(CCCN1CCCCC1)c1nccc(Nc2ccc(Cl)cc2)n1
Output line: 19%

Input line: Answer with the recorded Inhibition of COc1ccccc1N(C)CCNc1cc(C)nc(Nc2ccccc2)n1 only.
Output line: 10%

Input line: Please give measured Inhibition of the following entry: Cc1cc(NC(=O)Nc2cccc(Cl)c2Cl)c2ccccc2n1
Output line: 0%

Input line: Please list Inhibition recorded for the molecule CN(C)Cc1ccc(-c2ccc(NC(=O)c3ccc4c(=O)n(Cc5ccoc5)cnc4c3)cc2)cc1
Output line: 32%

Input line: Report measured Inhibition; entry is O=C(Nc1cccc(-c2ccc(-c3nc4cc(F)ccc4[nH]3)s2)c1)c1cccnc1
Output line: 46%

Input line: Give a short answer stating reported Inhibition for COc1cc2nc(N(C)Cc3cccc(I)c3)nc(N)c2cc1OC .
Output line: 7%

Input line: State its Inhibition for this molecule: COc1c(C2CCN(CCCCNC(=O)c3ccc(-c4ccc(Cl)cc4)c(OCC(N)=O)c3)CC2)ccc2c1CCCC2
Output line: 43%

Input line: State, in one line, measured Inhibition of Cl.O=C1Nc2ccc3ncccc3c2/C1=C/Nc1ccc(N2CCN(CCO)CC2)cc1
Output line: 34%

Input line: Query Inhibition for Cc1cccc2nc(-c3ccc(-c4ccc(C(=O)NCCc5cn(C)cn5)cc4)s3)[nH]c12
Output line: 0%

Input line: Given O=C(/C=C/c1ccccc1Cl)NC1CCC(CN2CCC(c3c[nH]c4ccncc34)CC2)CC1 (stereo not drawn) , respond with its Inhibition.
Output line: 19%

Input line: Please look at this molecule and report its Inhibition: Cl.N#Cc1ccc2c(c1)CCN(CCC1CCC(NC(=O)/C=C/c3nc4ccccc4s3)CC1)CC2 (stereo not drawn)
Output line: 6%

Input line: Supply recorded Inhibition for CCc1cn2c3c(cc(C(=O)N[C@@H](Cc4cccc(Cl)c4)[C@H](O)CNC4CCOCC4)cc13)N(C)S(=O)(=O)CC2.O=CO here.
Output line: 2%

Input line: Supply recorded Inhibition for CC1CCN(CC[C@H]2CCCN2S(=O)(=O)c2cccc(NC(=O)Nc3ccc(C(F)(F)F)cc3)c2)CC1 here.
Output line: 12%

Input line: Recall and state the measured Inhibition for CCOc1ccc(Cc2c(C)nc3nc(N)nc(N)c3c2C)cc1.Cl .
Output line: 63%

Input line: Please supply the value of reported Inhibition for the item CNCCNCc1ccc(-c2ccc(-c3nc4cc(F)ccc4[nH]3)cc2)cc1.O=C(O)C(F)(F)F
Output line: 30%

Input line: Please indicate Inhibition recorded for O=C(O)C(F)(F)F.OCC1CCN(Cc2cccc(-c3ccc(-c4nc5cc(F)ccc5[nH]4)cc3)c2)CC1
Output line: 11%

Input line: Dear colleague, please send me the reported Inhibition for COc1ccc2nccc([C@@H](O)CN3CCC(NC(=O)c4cc5c(F)cc(F)cc5[nH]4)CC3)c2n1 when you can.
Output line: 32%

Input line: Look up Inhibition of COc1cc2nc(N3CCC(CNC(=O)c4cc5ccccc5s4)CC3)nc(N)c2cc1OC and report it.
Output line: 8%

Input line: Consider the molecule Nc1nc(-c2ccccn2)nc(-n2nc(-c3cccc(C(F)(F)F)c3)cc2N)n1.O=C(O)C(F)(F)F . State its measured Inhibition.
Output line: 14%

Input line: Identify measured Inhibition corresponding to Fc1ccc(Nc2nnc(CNC3CCN(Cc4ccc(Cl)c(Cl)c4)CC3)[nH]2)cc1
Output line: 18%

Input line: Return value of Inhibition for input N#Cc1ccc2[nH]c(-c3ccccc3)nc2c1 , no commentary.
Output line: 7%

Input line: Please list Inhibition recorded for the molecule COc1ccc2nccc([C@H](O)CN3CCC(NCc4nc5cccc(F)c5[nH]4)CC3)c2c1.O=C(O)C(=O)O
Output line: 0%

Input line: Identify the reported Inhibition for the following entry. O=C1Nc2cccc3c2C1(CCCCCN1CCC(c2c[nH]c4ccncc24)CC1)CCC3 (stereo not drawn)
Output line: 8%

Input line: Determine from records and report Inhibition for COc1ccccc1CNc1ccnc(N2CC(Oc3ccc(F)cc3)C2)n1
Output line: 2%

Input line: Report Inhibition for Cl.O=S(=O)(Nc1cc2c(cc1O)CCN(C1CCC1)CC2)c1ccc(-c2ccc(F)cc2)cc1
Output line: 16%

Input line: Fill in Inhibition for record O=C(/C=C/c1cccc(C(F)(F)F)c1)NCCCCCN1CCC(c2c[nH]c3ccccc23)CC1
Output line: 70%

Input line: Determine from records and report Inhibition for Cc1[nH]c(C)c(-c2ccc(OCCSc3ccncc3)cc2)c(=O)c1Br
Output line: 0%

Input line: Fill in reported Inhibition for this entry: COc1cccc(NC(=O)Cn2c(C)c(C#N)c3ccccc32)c1
Output line: 16%

Input line: Identify the reported Inhibition for the following entry. O=C(NCC(NCCCNc1cc(=O)c2ccccc2[nH]1)c1cc(Br)cc(Br)c1)C1=CCCC1 (stereo not drawn)
Output line: 0%

Input line: Return value of Inhibition for input COc1ccc(C=Cc2ccc(-c3c(C)[nH]c(C)c(Cl)c3=O)cc2)cc1OC , no commentary.
Output line: 12%

Input line: For the molecule COc1ccc(CCc2ccc(-c3c(C)[nH]c(C)c(Cl)c3=O)cc2)cc1OC , give its measured Inhibition value.
Output line: 0%

Input line: State its Inhibition: CCCCN(Cc1cccc(C(F)(F)F)c1Cl)c1ccc(C(O)(C(F)(F)F)C(F)(F)F)cc1.O=C(O)C(F)(F)F
Output line: 10%

Input line: Could you please provide reported Inhibition for Cc1cc(=NN=Cc2cccc(F)c2)c2ccc(F)cc2[nH]1 ? Thanks!
Output line: 2%

Input line: Specify Inhibition for CC(C)(C)c1ccc(O)c(CNC2CCCCC2)c1.Cl and stop.
Output line: 5%

Input line: # return recorded Inhibition for entry CCCCCCCN1CC[C@@H](C[C@H](N)Cc2ccnc3ccc(OC)cc23)[C@@H](CC)C1.O=C(O)C(=O)O
Output line: 33%

Input line: Give the value of Inhibition reported for the following: Cc1ccccc1C1CCN(C2CCC(NC(=O)/C=C/c3cccc(Cl)c3)CC2)CC1 (stereo not drawn)
Output line: 70%

Input line: Identify measured Inhibition associated with COCCn1c(SC(C)C(=O)Nc2cc(C(F)(F)F)ccc2Cl)nc2ccccc2c1=O (stereo not drawn)
Output line: 8%

Input line: Specify Inhibition for COc1ccc(NC(=O)c2ccc(Br)c(C)c2)cc1N1CCN(Cc2ccccc2)CC1.O=C(O)C(=O)O and stop.
Output line: 0%
